assayRemarks: Quantitative High-Throughput drug screen in 47 multiple myeloma cell lines against the NCATS MIPE library collection: KMS26_JCRB cell viability assay (AID 1918975); also: nearly all actives have a fitted effect of over 45% in size; also: potency is read from the fitted curve at half-maximal effect
conditionInfo: KMS26 myeloma cells viability, CellTiter-Glo ATP, 48 h; series mostly up to 45.8 µM
Inconclusive results are not listed. Activity calls are given as the source filed them. Calls follow the shape of the dose curve; as a rule, active = well fitted cell-killing curve with a large enough effect; inconclusive = small, poorly fitted or top-dose-only effect, or effect the other way; inactive = no such curve, though single readings can be large or run the other way.
readoutKind: Potency

Field: example entries. Status: answers known.
compound	Potency
Oc1ccc(-c2ccc(-c3cc(Nc4cccc(CNC5CC5)c4)n[nH]3)cc2)c(O)c1	3320 nM (active)
Cc1nc(NC(=O)N2CCC[C@@H]2C(N)=O)sc1-c1ccnc(C(C)(C)C(F)(F)F)c1	4180 nM (active)
Nc1ccc(C(=O)Nc2cccc(-c3nc(N4CCOCC4)c4oc5ncccc5c4n3)c2)cn1	2350 nM (active)
CN1[C@H]2CC(OC(=O)[C@@H](CO)c3ccccc3)C[C@H]1[C@H]1O[C@H]12 (some centres not stated)	inactive

Field Potency (entry "CCCCCN=C(N)NN=Cc1c[nH]c2ccc(OC)cc12" ) reads 10500 nM (active)

Lookup result for "CC(C)(C)c1nc2c3cc[nH]c(=O)c3c3cc(F)ccc3c2[nH]1" ; measured Potency: 11.8 nM (active)

Documented Potency of "CN[C@H](CC(C)C)C(=O)N[C@H]1C(=O)N[C@@H](CC(N)=O)C(=O)N[C@@H]2C(=O)N[C@H]3C(=O)N[C@H](C(=O)N[C@H](C(=O)O)c4cc(O)cc(O)c4-c4cc3ccc4O)[C@H](O)c3ccc(c(Cl)c3)Oc3cc2cc(c3O[C@@H]2O[C@H](CO)[C@@H](O)[C@H](O)[C@@H]2O[C@H]2C[C@](C)(N)[C@H](O)[C@H](C)O2)Oc2ccc(cc2Cl)[C@H]1O" : inactive
